B1: Tudor domain-containing protein 3, residues 554 to 611; numbered along this chain, Q9H7E2 (parent)
chain: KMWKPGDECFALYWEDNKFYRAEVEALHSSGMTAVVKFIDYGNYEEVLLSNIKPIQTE

Variants of: B1
assayText: abundance fitness (aPCA) (normalised: wild type 0, dead -1); higher = more abundant; growth selection in yeast, the domain comes from the species named
settings: Homo sapiens
quantity: abundance fitness
Number, no unit, nothing else.

These solved cases illustrate the format of a correct answer.
N43P -0.563
E58A -0.133
M32E 0.009

Query string: Consider the variant shown here: `I39A` What is its recorded abundance fitness?
Result string: -0.036

Query string: Also `M32D` ?
Result string: -0.057

Query string: Also `I39R` ?
Result string: -0.097

Query string: Also `N43R` ?
Result string: 0.091

Query string: Also `K37T` ?
Result string: -0.923

Query string: Also `D16Q` ?
Result string: -0.498
